The measured values listed here are drawn from patent US20220275417A1.

Listed here are binders together with their documented pKd.
TARGET OF ASSAY: T1, recombinant human sCD4 CF (manufactured by R&D Systems) (human, UniProt P01730 26-390, limits assumed)
T1 construct: Immobilized on the Biacore sensor chip; also called recombinant CD4; CD4 antigen
PROTOCOL NOTES: SPR, Biacore T-200, CD4 immobilized on chip, as in Example 2
pKd: −log10 of the molar value.
RECORDED METRIC: pKd

* anti-CD4 with barcode 4-5 (VHH, secreted from Pichia pastoris) VHH: EVQLVESGGGSVQPGGSLTLSCGTSGRTFNVMGWFRQAPGKEREFVAAVRWSSTGIYYTQYADSVKSRFTISRDNAKNTVYLEMNSLKPEDTAVYYCAADTYNSNPARWDGYDFRGQGTQVTVSS | 7.62
* anti-CD4 with barcode 4-6 (VHH, secreted from Pichia pastoris) VHH: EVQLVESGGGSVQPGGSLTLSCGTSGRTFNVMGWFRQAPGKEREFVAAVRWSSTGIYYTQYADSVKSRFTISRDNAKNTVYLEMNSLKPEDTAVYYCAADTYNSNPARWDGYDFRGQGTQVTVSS | 7.55
* anti-CD4 with barcode 4-2 (VHH, secreted from Pichia pastoris) VHH: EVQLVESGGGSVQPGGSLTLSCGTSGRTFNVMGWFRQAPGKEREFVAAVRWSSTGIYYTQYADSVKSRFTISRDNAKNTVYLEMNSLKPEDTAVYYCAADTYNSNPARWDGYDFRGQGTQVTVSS | 7.55
* anti-CD4 with barcode 4-7 (VHH, secreted from Pichia pastoris) VHH: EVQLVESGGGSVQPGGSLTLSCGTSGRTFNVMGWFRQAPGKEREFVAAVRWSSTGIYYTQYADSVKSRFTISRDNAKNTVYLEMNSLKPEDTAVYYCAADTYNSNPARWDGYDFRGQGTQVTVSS | 7.62
